// data source = patent US20030148956A1

TARGET SYSTEM: corticotropin releasing factor 1 receptor
ASSAY COMMENT: cell-based or functional assay
MEASURED PROPERTY: CRF1R Emax % (%)
One number for each entry, in %.

# annotated cases, reported CRF1R Emax % shown
[[record]]
binder = "ZGPPISIDLPFQLLRILIEIEKQEKEKQQAANNRLLLDTI (C-terminal amide) [SEQ ID NO 255]"
readout_unit = "%"
measurement = 84

[[record]]
binder = "ZGPPISIDVPYWLLRKVIEIEKQEKEKQQAANNARLLARI (C-terminal amide) [SEQ ID NO 373]"
readout_unit = "%"
measurement = 9

[[record]]
binder = "ZGPPISIDLPTYLLRILIEIEKQEKEKQQAANNRLLLDTI (C-terminal amide) [SEQ ID NO 252]"
readout_unit = "%"
measurement = 100

[[record]]
binder = "ZGPPISIDLPFQLLRKAIEIEKQEKEKQQAANNALLLATI (C-terminal amide) [SEQ ID NO 364]"
readout_unit = "%"
measurement = 27

[[record]]
binder = "ZGPPISIDLPAFLLRKMIEIEKQEKEKQQAANNRLLLDTI (C-terminal amide) [SEQ ID NO 222]"
readout_unit = "%"
measurement = 95


Field: next binder
May I ask what CRF1R Emax % has been recorded for ZGPPISIDLPQWLLRKMIEIEKQEKEKQQAANNRLLLDTI (C-terminal amide) [SEQ ID NO 213] ?
76
